- Tested on: NCI-H23 lung
- assay_info: NCI-60 one-dose screen, 48 h
- condition_notes: 10 µM unless noted
The panel holds about 83,000 compounds, 20% with a hit somewhere; the sample as a whole holds those more often. Activity calls are given as the source filed them. The calls were made as follows: active = growth percent below 10; inactive = the rest.
Please answer using one outcome listed in true (1) (active), false (0) (inactive)

Field: outcome | Entry: C/C(=N\N=C1/SCC(=O)N1c1ccccc1)c1ccco1
false (0)

Field: outcome | Entry: COc1ccc2c(c1)OC(N(C(C)=O)C(C)=O)=C(C#N)C2c1ccc(F)cc1 (centres undefined)
false (0)

Field: outcome | Entry: O=C(Nc1ccc(-n2ccc3c(NC(=O)c4ccccc4)nccc32)cc1)Nc1cccc(C(F)(F)F)c1
false (0)

Field: outcome | Entry: Cn1c2ccccc2c2ssc(=S)c21
false (0)

Field: outcome | Entry: O=C1C(Cl)=C(Nc2ccccc2)C(=O)C(Cl)=C1Nc1ccccc1
false (0)

Field: outcome | Entry: CC(=O)Nc1ccc(OC(=O)c2ccccc2O)cc1
false (0)

Field: outcome | Entry: COc1cc(Cn2cc3c(c2)-c2onc(CO)c2CC3)cc(OC)c1OC
false (0)

Field: outcome | Entry: Nn1c(CN2CCN(c3cc4c(cc3F)c(=O)c(C(=O)O)cn4C3CC3)CC2)n[nH]c1=S
false (0)

Field: outcome | Entry: Nc1nc(-c2cc3c(cc2Cl)NC(=O)/C3=C/c2ccc(Cl)cc2)cs1
false (0)

Field: outcome | Entry: CCC(CC(C)C)Nc1ccc(NC(CC)CC(C)C)cc1 (centres undefined)
false (0)

Field: outcome | Entry: C=CC(C)(O)CCC1C(=C)CCC2C(C)(C)CCCC12C (centres undefined)
false (0)

Field: outcome | Entry: CCOc1ccc(Cc2nccc3cc(OCC)c(OCC)cc23)cc1OCC
false (0)

Field: outcome | Entry: Cc1c(Cl)ccc2c(C(=O)Cl)cc(-c3ccccc3)nc12
false (0)

Field: outcome | Entry: COc1cc(Nc2ncccc2C(=O)Nc2nc3ccc(F)cc3s2)cc(OC)c1OC
false (0)

Field: outcome | Entry: CC/C(=C(\CC)c1ccc(OCCN(CC)CC)cc1)c1ccc(OCCN(CC)CC)cc1
false (0)

Field: outcome | Entry: CC1(C)N=C(N)N=C(N)N1c1cccc(CCCCc2ccccc2)c1
false (0)

Field: outcome | Entry: COc1ccccc1S(=O)(=O)Nc1ccc2c3c(cc(-c4ccoc4)nc13)C(=O)N2C
false (0)

Field: outcome | Entry: COc1ccccc1N1CCN(CC(O)COc2c(Br)c(Br)c(Br)c3c2OC(C)(C)C3)CC1 (centres undefined)
false (0)

Field: outcome | Entry: O=C(Nc1ccc(F)cc1)Nc1ccc(Cl)c([N+](=O)[O-])c1
true (1)

Field: outcome | Entry: CCn1c(SCC(=O)c2ccc(Br)cc2)nnc1-c1cc2c([nH]c3ccccc32)c(-c2cccc(O)c2)n1
false (0)

Field: outcome | Entry: Cc1cn(-c2cc(C(=O)Nc3cccc(-n4ccc5c(NC(=O)c6ccccc6)nccc54)c3)cc(C(F)(F)F)c2)cn1
false (0)

Field: outcome | Entry: Nc1c(C(=O)O)[nH]c(=O)[nH]c1=O
false (0)

Field: outcome | Entry: OC[C@@H](O)C(O[C@@H]1O[C@H](CO)[C@H](O)[C@H](O)[C@H]1O)[C@H](O)[C@@H](O)CO (some centres undefined)
false (0)

Field: outcome | Entry: Cc1cn(-c2nc3c(c(NCc4ccccc4)n2)COCC3)c2cccc(C(N)=O)c12
false (0)

Field: outcome | Entry: NS(=O)(=O)c1ccc(CCN2C(=O)/C(=C\c3ccc(Cl)cc3)C=C2c2ccc(Oc3ccccc3)cc2)cc1
false (0)

Field: outcome | Entry: OC(COc1ccccc1Cl)CN1CCN(c2ccc(Cl)cc2)CC1 (centres undefined)
false (0)

Field: outcome | Entry: Nc1n[nH]c2cccc(C#Cc3cccc(NC(=O)c4cccc(C(F)(F)F)c4)c3)c12
false (0)

Field: outcome | Entry: CCC1(C(N)=O)CC2C=CC1CC2 (centres undefined)
false (0)

Field: outcome | Entry: COc1ccc(Cl)cc1NC(=O)c1cc2c([nH]1)-c1nc(N)sc1CCC2
false (0)

Field: outcome | Entry: CCOC(=O)C1CN(Cc2ccccc2)C(=O)C1=O (centres undefined)
false (0)

Field: outcome | Entry: CCN(CC)CC(=O)Nc1c(C)cccc1C
false (0)

Field: outcome | Entry: CC1CCC(C(C)C)C(NN)C1 (centres undefined)
false (0)

Field: outcome | Entry: O=[N+]([O-])c1ccc(NS(=O)(=O)c2ccccc2)c2ccccc12
false (0)

Field: outcome | Entry: COC(=O)CCCNS(=O)(=O)c1cc(C(=O)Nc2ccc(NC(=O)c3cc(S(=O)(=O)NCCCC(=O)OC)c(O)c(O)c3O)cc2)c(O)c(O)c1O
false (0)

Field: outcome | Entry: COc1ccc(C(=O)NC(=O)Nc2ccc3c(c2)NC(=O)/C3=C\c2[nH]c(C)c(C(=O)O)c2C)cc1
false (0)

Field: outcome | Entry: CCOC(=O)C(C)(CSSCC(C)(NC(=O)c1ccc2ccccc2c1)C(=O)OCC)NC(=O)c1ccc2ccccc2c1 (centres undefined)
false (0)

Field: outcome | Entry: CNCCCOc1c(Br)cc(CCNC(=O)/C(Cc2ccc(OC)c(Br)c2)=N/O)cc1Br
false (0)

Field: outcome | Entry: CC(C)CNCC(O)COc1ccc(C(C)(C)c2ccc(OCC(O)CNCC(C)C)cc2)cc1 (centres undefined)
false (0)

Field: outcome | Entry: O=S(c1ccccc1)c1ccc2nnnn2n1 (centres undefined)
false (0)
